Listed below: Time values for each entry.
- Tested on: Mus musculus
- Protocol Description: Toxicity in mouse assessed as effect on pentobarbital sodium-induced hypnotic effect measured as recovery of righting reflex at 100 mg/kg pretreated for 30 mins prior to pentobarbital sodium-challenge
- Type: organism-based
- Set-up: dose 100 mg/kg
- Condition Parameters: in vivo

Molecule	Time, min
OCCCN1CCC(=C2c3ccc(Cl)cc3CCc3cccnc32)CC1	100
Clc1ccc2c(c1)CCc1cccnc1C2=C1CCN(C2CCC(Cl)CC2)CC1 (stereo not given)	103
ClCCCN1CCC(=C2c3ccc(Cl)cc3CCc3cccnc32)CC1	120
FCCCN1CCC(=C2c3ccc(Cl)cc3CCc3cccnc32)CC1	123
CCCN1CCC(=C2c3ccc(Cl)cc3CCc3cccnc32)CC1	99
